- Tested on: HOP-62 NSCLC
- Measurement notes: NCI tumour cell line growth inhibition, 48 h
Readout: GI50

Would you please look over these solved cases?
                                   compound        system  recorded_result
0  CC(F)(F)c1cc(F)ccc1-c1sc2cc(O)ccc2c1Oc1ccc(/C=C/C(=O)O)cc1  HOP-62 NSCLC          9.03 µM
1  Cc1ccc(C2SCc3nc4ccc(C(=O)c5ccccc5)cc4n32)cc1 (centres undefined)  HOP-62 NSCLC          14.8 µM

Consider now this further compound.
Record `CCN(Cc1nc2cc(C(F)(F)F)ccc2nc1-c1ccccc1)c1ccc(OC)c(OC)c1` , field GI50: 15.1 µM
